Procedure Text: Plasma concentration in male rats at 25 mg/kg, po at 2 hrs using 1% methylcellulose
Format: ADME, organism-based
Measurement Setup: rat
Reported Endpoint: concentration at 2 h (µM)
Hi! Could you send only the number? It should be in µM, unit omitted.

Data request: Requested field: concentration at 2 h. Item: CC(C)c1ccc(CC(=O)N[C@H](C)c2ccc(OCC(F)(F)F)cn2)cc1 [SUVECALTAMIDE]
Data returned: 6.3

---

Procedure Text: Toxicity in female Sprague-Dawley rats at 10 to 1000 mg/kg, po assessed as effect on fertility
Format: organism-based
Measurement Setup: rat, in vivo, dose 10-1000 mg/kg
Reported Endpoint: NOAEL

Data request: Requested field: NOAEL. Item: CC(C)c1ccc(CC(=O)N[C@H](C)c2ccc(OCC(F)(F)F)cn2)cc1 [SUVECALTAMIDE]
Data returned: ≥ 1000 mg/kg/day

---

Procedure Text: Tmax in rat
Type: ADME
Measurement Setup: in vivo
Reported Endpoint: Tmax
Answer format: value, then unit.

Data request: Requested field: Tmax. Item: C[C@@H](NC(=O)Cc1ccc(C2CC2)cc1)c1ccc(OCC(F)(F)F)cn1
Data returned: 18 min

---

Procedure Text: AUClast in rat
Type: ADME
Set-up: time 0 - last
Measurement Setup: in vivo
Reported Endpoint: AUC(0-t)
Answer format: value, then unit.

Data request: Requested field: AUC(0-t). Item: C[C@@H](NC(=O)Cc1ccc(C2CC2)cc1)c1ccc(OCC(F)(F)F)cn1
Data returned: 30 µM·h

---

Measured Target: CYP3A5 (Homo sapiens)
Sequence (P20815 whole entry): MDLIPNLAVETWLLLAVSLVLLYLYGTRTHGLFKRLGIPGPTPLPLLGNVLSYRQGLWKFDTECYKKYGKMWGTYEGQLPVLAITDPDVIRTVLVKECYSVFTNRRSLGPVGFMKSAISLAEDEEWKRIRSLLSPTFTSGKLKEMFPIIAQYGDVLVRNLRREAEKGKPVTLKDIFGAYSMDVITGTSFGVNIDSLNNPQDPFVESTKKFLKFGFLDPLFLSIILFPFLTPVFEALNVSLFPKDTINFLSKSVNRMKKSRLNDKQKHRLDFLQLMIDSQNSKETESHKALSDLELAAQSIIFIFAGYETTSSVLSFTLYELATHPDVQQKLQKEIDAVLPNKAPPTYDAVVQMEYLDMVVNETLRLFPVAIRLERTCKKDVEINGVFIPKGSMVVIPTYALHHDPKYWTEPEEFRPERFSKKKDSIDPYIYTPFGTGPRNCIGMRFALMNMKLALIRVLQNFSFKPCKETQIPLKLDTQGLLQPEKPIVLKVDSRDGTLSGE
Procedure Text: Inhibition of recombinant human CYP3A5 in human liver microsomes at 1 uM relative to control
Type: ADME
Reported Endpoint: inhibition at 1 µM

Data request: Requested field: inhibition at 1 µM. Item: CC(C)c1ccc(CC(=O)N[C@H](C)c2ccc(OCC(F)(F)F)cn2)cc1 [SUVECALTAMIDE]
Data returned: > 80%

---

Procedure Text: Oral bioavailability in dog at 0.5 mg/kg
Assay type: ADME, organism-based, Canis lupus familiaris
Measurement Setup: in vivo
Reported Endpoint: bioavailability (%)
Hi! Could you send only the number? It should be in %, unit omitted.

Data request: Requested field: bioavailability. Item: CC(C)c1ccc(CC(=O)N[C@H](C)c2ccc(OCC(F)(F)F)cn2)cc1 [SUVECALTAMIDE]
Data returned: 47

---

Procedure Text: Plasma concentration in male rats at 25 mg/kg, po at 2 hrs using 90% PEG400
Type: ADME, organism-based
Measurement Setup: rat
Reported Endpoint: concentration at 2 h (µM)
Hi! Could you send only the number? It should be in µM, unit omitted.

Data request: Requested field: concentration at 2 h. Item: CC(C)c1ccc(CC(=O)N[C@H](C)c2ccc(OCC(F)(F)F)cn2)cc1 [SUVECALTAMIDE]
Data returned: 3.3

---

Procedure Text: Brain concentration in male rats at 25 mg/kg, po at 2 hrs using 1% methylcellulose
Format: ADME, organism-based
Measurement Setup: rat, read-out: Drug uptake
Reported Endpoint: concentration at 2 h (µM)
Hi! Could you send only the number? It should be in µM, unit omitted.

Data request: Requested field: concentration at 2 h. Item: CC(C)c1ccc(CC(=O)N[C@H](C)c2ccc(OCC(F)(F)F)cn2)cc1 [SUVECALTAMIDE]
Data returned: 3.1
